test system: Botrytis cinerea; experiment: Test B: tomato Botrytis, preventive spray on tomato seedlings, visual disease rating; settings: Botrytis cinerea, in Solanum lycopersicum, 120 h, read-out: Test B rating (% disease control)
A collection of molecules and their measured pest or weed control at 200 µg/mL
Give the value in % but do not write % after it.

Here are 2 molecules together with their reported answers.
Cc1nn(C)c(Oc2ccc(C#N)cc2F)c1-c1ccc(F)cc1Br; 99
Cc1nn(C)c(Nc2c(F)cc(F)cc2Cl)c1-c1c(F)cccc1F; 100

Field pest or weed control at 200 µg/mL (Botrytis cinerea), entry Cc1nn(C)c(Nc2c(F)cc(F)cc2F)c1-c1ccc(F)cc1Br : 100

Field pest or weed control at 200 µg/mL (Botrytis cinerea), entry Cc1nn(C)c(Nc2ccc(F)cc2Cl)c1-c1ccc(F)cc1Cl : 100

Field pest or weed control at 200 µg/mL (Botrytis cinerea), entry COc1cc(F)c(-c2c(C)nn(C)c2Nc2ccc(Cl)cc2)c(F)c1 : 90

---

test system: Puccinia recondita f. sp. tritici; assay: Test I: wheat leaf rust, preventive spray on wheat seedlings, visual disease rating; conditions: 192 h, read-out: Test I rating (% disease control)
A collection of molecules and their measured pest or weed control at 200 µg/mL
Give the value in % but do not write % after it.

Cc1nn(C)c(Nc2ccc(F)cc2Br)c1-c1ccc(F)cc1Cl; 100
Cc1nn(C)c(Oc2ccc(C#N)cc2F)c1-c1ccc(F)cc1Cl; 100
Cc1nn(C)c(Oc2c(F)cc(C#N)cc2F)c1-c1ccc(F)cc1Cl; 100
COc1cc(F)c(-c2c(C)nn(C)c2Oc2c(F)cc(Cl)cc2F)c(F)c1; 100
Cc1nn(C)c(Nc2ccc(F)cc2F)c1-c1ccc(Cl)cc1Cl; 99
Cc1nn(C)c(Nc2ccc(F)cc2Cl)c1-c1c(F)cccc1Cl; 99
Cc1nn(C)c(Nc2ccc(F)cc2Cl)c1-c1ccc(F)cc1Cl; 99
Cc1nn(C)c(Nc2c(F)cccc2F)c1-c1ccc(F)cc1Cl; 99

Field pest or weed control at 200 µg/mL (Puccinia recondita f. sp. tritici), entry Cc1nn(C)c(Nc2cccc(Cl)c2)c1-c1ccc(F)cc1F : 0

---

tested on: Erysiphe graminis f sp. tritici; test: Test J: wheat powdery mildew, preventive spray on wheat seedlings, visual disease rating; settings: wheat powdery mildew, sprayed the day before inoculation; 100 = 100% disease control, 0 = no disease control relative to controls
A collection of compounds and their measured Test J disease control rating
Give the value in % but do not write % after it.

Cc1nn(C)c(Nc2ccc(Br)cc2F)c1-c1ccc(F)cc1Cl; 100
COc1ccc(-c2c(C)nn(C)c2Oc2ccc(C#N)cc2Cl)c(Br)c1; 89
COc1ccc(-c2c(C)nn(C)c2Oc2ccc(C#N)cc2F)c(Cl)c1; 96
Cc1nn(C)c(Nc2c(Cl)cc(F)cc2Cl)c1-c1ccc(F)cc1Br; 96
Cc1nn(C)c(Nc2ccc(F)cc2F)c1-c1c(Cl)cccc1Cl; 100

Field Test J disease control rating (Erysiphe graminis f sp. tritici), entry Cc1nn(C)c(C(O)c2c(F)ccc(F)c2F)c1-c1ccc(F)cc1Cl (racemic) : 0

Field Test J disease control rating (Erysiphe graminis f sp. tritici), entry Cc1nn(C)c(Nc2ncc(Cl)cc2Cl)c1-c1ccccc1Cl : 98

Field Test J disease control rating (Erysiphe graminis f sp. tritici), entry Cc1nn(C)c(Nc2ccc(F)cc2Br)c1-c1c(Cl)cccc1Cl : 100

---

test system: Puccinia recondita f. sp. tritici; assay: Test I: wheat leaf rust, preventive spray on wheat seedlings, visual disease rating; conditions: 192 h, read-out: Test I rating (% disease control)
readoutLabel: pest or weed control at 200 µg/mL
Provide the measurement as a number trailed by its unit.

COc1cc(F)c(Nc2c(-c3ccc(F)cc3Cl)c(C)nn2C)c(F)c1; 100%
COc1cc(F)c(-c2c(C)nn(C)c2Nc2ccc(F)cc2F)c(F)c1; 100%
Cc1nn(C)c(Nc2c(F)cc(F)cc2Cl)c1-c1ccc(F)cc1Br; 100%
Cc1nn(C)c(Oc2c(F)cc(C#N)cc2F)c1-c1ccc(F)cc1Br; 100%

Entry under test: Cc1nn(C)c(Oc2ccc(C#N)cc2Cl)c1-c1ccc(F)cc1Cl . Its pest or weed control at 200 µg/mL was 99%

---

A collection of compounds and their measured pest or weed control at 200 µg/mL
test system: Botrytis cinerea; test: Test B: tomato Botrytis, preventive spray on tomato seedlings, visual disease rating; settings: Botrytis cinerea, in Solanum lycopersicum, 120 h, read-out: Test B rating (% disease control)
Give the value in % but do not write % after it.

Here are 3 compounds together with their reported answers.
Cc1nn(C)c(Nc2cccc(Cl)c2)c1-c1ccc(F)cc1F [Compound 1]; 99
Cc1nn(C)c(Nc2ccc(F)cc2Cl)c1-c1c(F)cccc1Cl [Compound 193]; 99
COc1cc(F)c(-c2c(C)nn(C)c2Nc2c(F)cc(F)cc2F)c(F)c1 [Compound 24]; 98

Turning to the following compound.
Entry under test: Cc1nn(C)c(Oc2c(F)cc(C#N)cc2F)c1-c1ccc(F)cc1Cl [Compound 45] . Its pest or weed control at 200 µg/mL was 100

---

test system: Septoria tritici; experiment: Test G: wheat leaf blotch, preventive spray on wheat seedlings, visual disease rating; conditions: wheat leaf blotch, sprayed the day before inoculation; 100 = 100% disease control, 0 = no disease control relative to controls
A collection of compounds and their measured Test G disease control rating
Give the value in % but do not write % after it.

Here are 5 compounds together with their reported answers.
Cc1nn(C)c(Nc2ccc(F)cc2Cl)c1-c1ccc(Cl)cc1Cl; 100
Cc1nn(C)c(Nc2c(Cl)cc(F)cc2Cl)c1-c1ccc(Cl)cc1Cl; 99
Cc1nn(C)c(Nc2ccc(F)cc2F)c1-c1ccc(C#N)cc1Cl; 100
Cc1nn(C)c(Oc2ccc(C#N)cc2F)c1-c1c(F)cccc1Cl; 100
Cc1nn(C)c(Nc2ccc(F)cc2)c1-c1c(Cl)cccc1Cl; 99

Entry under test: COc1ccc(-c2c(C)nn(C)c2Oc2ccc(C#N)cc2F)c(Cl)c1 . Its Test G disease control rating was 100

---

A collection of compounds and their measured Test H rating (% disease control)
tested on: Puccinia recondita f. sp. tritici; assay: Test H: wheat leaf rust, curative spray on inoculated wheat seedlings, visual disease rating; conditions: wheat leaf rust, curative; 100 = 100% disease control, 0 = no control relative to controls
Give the value in % but do not write % after it.

Here are 5 compounds together with their reported answers.
Cc1nn(C)c(Nc2ncccc2Cl)c1-c1c(F)cc(F)cc1F; 97
COc1ccc(-c2c(C)nn(C)c2Nc2ccc(F)cc2F)c(Cl)c1; 8
Cc1nn(C)c(Nc2c(F)cc(C#N)cc2F)c1-c1c(F)cccc1F; 0
Cc1nn(C)c(Oc2ncc(F)cc2F)c1-c1ccc(F)cc1Cl; 99
Cc1nn(C)c(Nc2cc(F)ccc2F)c1-c1ccc(F)cc1Cl; 0

Turning to the following compound.
Entry under test: Cc1nn(C)c(Nc2ccc(Cl)cc2Cl)c1-c1ccc(F)cc1Cl . Its Test H rating (% disease control) was 41

---

system: Botrytis cinerea; test: Test B: tomato Botrytis, preventive spray on tomato seedlings, visual disease rating; settings: tomato Botrytis; 100 = 100% disease control, 0 = no control relative to controls
readoutLabel: Test B rating (% disease control) (%)
Give the value in % but do not write % after it.

Cc1nn(C)c(Nc2ccc(F)cc2)c1-c1ccccc1F; 97
Cc1nn(C)c(N(C)c2c(F)cc(F)cc2F)c1-c1ccc(F)cc1Cl; 97
COc1cc(Cl)c(Nc2c(-c3ccc(F)cc3Cl)c(C)nn2C)c(Cl)c1; 99
COc1ccc(-c2c(C)nn(C)c2Nc2ccc(Cl)cc2Cl)c(Cl)c1; 99

Turning to the following compound.
Entry under test: COc1cccc(Oc2c(-c3c(F)cc(F)cc3F)c(C)nn2C)c1 . Its Test B rating (% disease control) was 97

---

test system: Puccinia recondita f. sp. tritici; experiment: Test H: wheat leaf rust, curative spray on inoculated wheat seedlings, visual disease rating; details: 144 h, read-out: Test H disease control rating
Returns one of fulfilled or not fulfilled; fulfilled when pest or weed control at 200 µg/mL is >= 90%.

Consider the worked cases shown below.
Cc1nn(C)c(Nc2c(F)cc(Cl)cc2F)c1-c1ccc(F)cc1Br [Compound 360]; not fulfilled
Cc1nn(C)c(Oc2ccc(C#N)cc2Cl)c1-c1c(F)cccc1F [Compound 358]; not fulfilled
Cc1nn(C)c(Nc2c(F)cc(Br)cc2F)c1-c1ccc(F)cc1F [Compound 364]; not fulfilled
Cc1nn(C)c(Nc2c(F)cc(Br)cc2F)c1-c1ccc(F)cc1Cl [Compound 365]; not fulfilled

Next, consider the following compound.
Input: Please indicate if the recorded pest or weed control at 200 µg/mL for Cc1nn(C)c(Nc2c(Cl)cc(F)cc2Cl)c1-c1ccc(F)cc1Cl [Compound 369] meets or exceeds 90%.
Output: not fulfilled
